target: PAR1 (Homo sapiens (Human), UniProt P25116); experiment: PAR1 binding test (radioligand displacement, membrane preparation); conditions: human PAR1 expressed in High Five insect cell membranes; radioligand 20 nM; read-out: Inhibition of binding IC50
Sequence (P25116 22-425): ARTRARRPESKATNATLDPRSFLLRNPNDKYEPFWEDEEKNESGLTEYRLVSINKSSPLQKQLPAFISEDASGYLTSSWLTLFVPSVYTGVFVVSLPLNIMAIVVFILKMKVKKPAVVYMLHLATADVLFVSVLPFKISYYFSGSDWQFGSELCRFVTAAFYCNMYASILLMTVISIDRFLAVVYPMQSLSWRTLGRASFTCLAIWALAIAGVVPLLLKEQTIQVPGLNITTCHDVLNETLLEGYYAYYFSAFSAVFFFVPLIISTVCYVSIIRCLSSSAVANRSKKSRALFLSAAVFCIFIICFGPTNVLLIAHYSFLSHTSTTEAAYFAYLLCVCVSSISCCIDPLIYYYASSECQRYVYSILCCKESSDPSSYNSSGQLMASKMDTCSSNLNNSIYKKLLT
pIC50: −log10 of the molar value. Counter-ions that a name gives are not always drawn.
quantity-measured: pIC50

molecule="CCc1ccc2n(n1)c(N)n[n+]2CC(=O)c1cc(N2CCOCC2)c(OC)c(C(C)(C)C)c1 [Example 60, trifluoroacetate]" quantity_measured=pIC50 val=5.68

I: CCOc1nn2c(NC)n[n+](CC(=O)c3cc(N4CCOCC4)c(OC)c(C(C)(C)C)c3)c2c(C)c1C [Example 72, trifluoroacetate]
II: CCOc1nn2c(N)n[n+](CC(=O)c3cc(OCCCO)c(OC)c(C(C)(C)C)c3)c2cc1CC [Example 82]
Sorting by pIC50 in descending order, would I or II appear first? Your choice should be expressed through its label. I
